The values you see were collected from ChEMBL document CHEMBL1287688.

molecular target: Glutamate NMDA receptor; GRIN1/GRIN2B (Homo sapiens, UniProt Q05586+Q13224); assay: Displacement of [3H]ifenprodil from human recombinant NR1-1a/NR2B receptor expressed in mouse L(tk-) cells after 120 mins by scintillation counting
Sequence (Q13224 whole entry, other chains not shown): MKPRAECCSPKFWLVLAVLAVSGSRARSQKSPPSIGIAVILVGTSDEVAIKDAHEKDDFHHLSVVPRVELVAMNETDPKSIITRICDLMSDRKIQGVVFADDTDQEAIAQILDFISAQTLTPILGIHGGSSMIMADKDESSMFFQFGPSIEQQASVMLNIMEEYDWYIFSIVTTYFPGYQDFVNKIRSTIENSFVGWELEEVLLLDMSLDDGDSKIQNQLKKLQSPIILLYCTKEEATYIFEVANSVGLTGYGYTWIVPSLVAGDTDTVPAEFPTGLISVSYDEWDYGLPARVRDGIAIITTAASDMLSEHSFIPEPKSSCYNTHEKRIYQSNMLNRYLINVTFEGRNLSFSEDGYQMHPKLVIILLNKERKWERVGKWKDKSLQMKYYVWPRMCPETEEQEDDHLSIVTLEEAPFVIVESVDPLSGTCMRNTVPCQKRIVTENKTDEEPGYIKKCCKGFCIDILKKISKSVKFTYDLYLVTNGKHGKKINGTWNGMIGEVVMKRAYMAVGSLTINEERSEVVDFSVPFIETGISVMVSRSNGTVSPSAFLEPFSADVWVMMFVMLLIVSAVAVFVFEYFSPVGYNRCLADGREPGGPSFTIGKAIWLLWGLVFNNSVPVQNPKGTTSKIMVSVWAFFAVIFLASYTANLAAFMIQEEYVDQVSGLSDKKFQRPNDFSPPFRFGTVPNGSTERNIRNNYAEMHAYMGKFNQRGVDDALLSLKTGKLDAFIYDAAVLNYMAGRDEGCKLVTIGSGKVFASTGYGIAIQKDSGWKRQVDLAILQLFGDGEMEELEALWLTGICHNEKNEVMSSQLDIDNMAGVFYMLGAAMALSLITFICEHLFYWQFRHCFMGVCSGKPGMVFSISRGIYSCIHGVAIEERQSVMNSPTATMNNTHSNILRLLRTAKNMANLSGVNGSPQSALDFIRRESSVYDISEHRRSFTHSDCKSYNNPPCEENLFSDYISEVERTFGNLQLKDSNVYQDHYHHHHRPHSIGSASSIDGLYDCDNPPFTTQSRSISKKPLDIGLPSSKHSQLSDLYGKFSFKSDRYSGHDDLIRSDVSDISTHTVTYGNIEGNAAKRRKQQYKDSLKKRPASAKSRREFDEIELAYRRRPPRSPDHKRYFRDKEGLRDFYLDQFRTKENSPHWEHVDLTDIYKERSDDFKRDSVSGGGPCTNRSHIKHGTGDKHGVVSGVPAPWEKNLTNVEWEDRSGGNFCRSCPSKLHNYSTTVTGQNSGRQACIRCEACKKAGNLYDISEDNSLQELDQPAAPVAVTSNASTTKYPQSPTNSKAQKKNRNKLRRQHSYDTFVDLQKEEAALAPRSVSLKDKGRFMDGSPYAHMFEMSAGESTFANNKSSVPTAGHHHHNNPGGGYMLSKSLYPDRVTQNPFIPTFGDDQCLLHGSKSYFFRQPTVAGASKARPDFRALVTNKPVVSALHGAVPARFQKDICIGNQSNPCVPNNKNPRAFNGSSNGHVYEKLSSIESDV
# Lookup of reported pKi keyed by entry
For clarity, pKi is expressed as the negative log10 of concentration in mol/L.

OC1CN(C2COC(c3ccccc3)OC2)CCc2cc(OCc3ccccc3)ccc21 (racemic) ... 6.00
Oc1ccc2c(c1)CCN(CCCCc1ccccc1)CC2O (racemic) ... 7.85
OC1CN(CCCCc2ccccc2)CCc2cc(OCc3ccccc3)ccc21 (racemic) ... 6.73
OC1CN(Cc2ccc(N3CCCCC3)cc2)CCc2cc(OCc3ccccc3)ccc21 (racemic) ... 5.88
OC1CN(CCCSc2ccccc2)CCc2cc(OCc3ccccc3)ccc21 (racemic) ... 7.39

**Query** Please report the recorded pKi for OC(CN1CCC(Cc2ccc(F)cc2)CC1)c1ccc(Cl)cc1 (stereo not given) .
**Result** 7.89

**Query** Please report the recorded pKi for COc1ccc2c(c1)CCN(CCCCc1ccccc1)CC2O (stereo not given) .
**Result** 8.27

**Query** Please report the recorded pKi for CC1(C)COC(CCCN2CCc3cc(OCc4ccccc4)ccc3C(O)C2)(c2ccc(F)cc2)OC1 (racemic) .
**Result** 5.85

**Query** Please report the recorded pKi for O=C(c1ccccc1)N1CCC(N2CCc3cc(O)ccc3C(O)C2)CC1 (racemic) .
**Result** 6.69

**Query** Please report the recorded pKi for O=C(CCCN1CCc2cc(OCc3ccccc3)ccc2C(O)C1)c1ccc(F)cc1 (racemic) .
**Result** 6.82

**Query** Please report the recorded pKi for OC1CN([C@H]2CC[C@@H](c3ccccc3)CC2)CCc2cc(OCc3ccccc3)ccc21 (stereo not given in full) .
**Result** 6.86

**Query** Please report the recorded pKi for CN(Cc1ccccc1)C(=O)CN1CCc2cc(OCc3ccccc3)ccc2C(O)C1 (racemic) .
**Result** 6.42

**Query** Please report the recorded pKi for O=S(=O)(CCCN1CCc2cc(OCc3ccccc3)ccc2C(O)C1)c1ccccc1 (racemic) .
**Result** 7.43

**Query** Please report the recorded pKi for Oc1ccc2c(c1)CCN([C@H]1CC[C@@H](c3ccccc3)CC1)CC2O (mixture of isomers) .
**Result** 8.48

**Query** Please report the recorded pKi for CC(C)(C)c1ccc(C(=O)CCCN2CCc3cc(OCc4ccccc4)ccc3C(O)C2)cc1 (racemic) .
**Result** 6.19

**Query** Please report the recorded pKi for COc1ccc(C2(CCCN3CCc4cc(OCc5ccccc5)ccc4C(O)C3)OCC(C)(C)CO2)cc1 (racemic) .
**Result** 6.18

**Query** Please report the recorded pKi for OC1CN(CCCOc2ccccc2)CCc2cc(OCc3ccccc3)ccc21 (racemic) .
**Result** 7.03

**Query** Please report the recorded pKi for O=C(CCCN1CCc2cc(O)ccc2C(O)C1)c1ccc(F)cc1 (racemic) .
**Result** 7.44

**Query** Please report the recorded pKi for OC1CN(Cc2cccc(-c3ccccc3)c2)CCc2cc(OCc3ccccc3)ccc21 (racemic) .
**Result** 5.92

###

biological target: Sigma non-opioid intracellular receptor 1 (Cavia porcellus, UniProt Q60492); test: Displacement of [3H](+)-pentazocine from sigma1 receptor guinea pig brain after 180 mins scintillation counting
Sequence (Q60492 whole entry): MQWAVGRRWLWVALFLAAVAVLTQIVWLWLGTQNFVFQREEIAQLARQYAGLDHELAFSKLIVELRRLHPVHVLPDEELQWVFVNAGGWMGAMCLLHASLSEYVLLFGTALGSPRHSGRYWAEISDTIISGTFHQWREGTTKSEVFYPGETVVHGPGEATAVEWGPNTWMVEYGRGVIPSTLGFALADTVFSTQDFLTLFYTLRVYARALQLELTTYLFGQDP
readoutName: Ki

OC1CN(Cc2ccc(N3CCCCC3)cc2)CCc2cc(OCc3ccccc3)ccc21 (racemic) ... 0.604 µM
COc1ccc(C(=O)CCCN2CCc3cc(OCc4ccccc4)ccc3C(O)C2)cc1 (racemic) ... > 1 µM
OC1CN(Cc2cccc(-c3ccccc3)c2)CCc2cc(OCc3ccccc3)ccc21 (racemic) ... > 1 µM

**Query** Please report the recorded Ki for O=S(=O)(CCCN1CCc2cc(O)ccc2C(O)C1)c1ccccc1 (racemic) .
**Result** > 1 µM

**Query** Please report the recorded Ki for CC1(C)COC(CCCN2CCc3cc(OCc4ccccc4)ccc3C(O)C2)(c2ccc(C(C)(C)C)cc2)OC1 (racemic) .
**Result** > 1 µM

**Query** Please report the recorded Ki for O=C(c1ccccc1)N1CCC(N2CCc3cc(OCc4ccccc4)ccc3C(O)C2)CC1 (racemic) .
**Result** > 1 µM

**Query** Please report the recorded Ki for CC1(C)COC(CCCN2CCc3cc(OCc4ccccc4)ccc3C(O)C2)(c2ccc(F)cc2)OC1 (racemic) .
**Result** > 1 µM

**Query** Please report the recorded Ki for COc1ccc(C2(CCCN3CCc4cc(OCc5ccccc5)ccc4C(O)C3)OCC(C)(C)CO2)cc1 (racemic) .
**Result** > 1 µM

**Query** Please report the recorded Ki for O=C(CCCN1CCc2cc(O)ccc2C(O)C1)c1ccc(F)cc1 (racemic) .
**Result** 1.05 µM

###

assay: Displacement of [3H]di-o-tolylguanidine from sigma2 receptor rat liver membranes after 180 mins scintillation counting; type: cell membranes, Membrane
# Lookup of reported Ki keyed by entry

Observe how each entry below is paired with its result.
CN(Cc1ccccc1)C(=O)CN1CCc2cc(O)ccc2C(O)C1 (racemic) ... 1580 nM
OC1CN(C2CCC3(CC2)OCCO3)CCc2cc(OCc3ccccc3)ccc21 (racemic) ... 753 nM

**Query** Please report the recorded Ki for CN(Cc1ccccc1)C(=O)CN1CCc2cc(OCc3ccccc3)ccc2C(O)C1 (racemic) .
**Result** 2960 nM

**Query** Please report the recorded Ki for OC1CN(C2COC(c3ccccc3)OC2)CCc2cc(OCc3ccccc3)ccc21 (racemic) .
**Result** > 1000 nM

**Query** Please report the recorded Ki for Oc1ccc2c(c1)CCN([C@H]1CC[C@@H](c3ccccc3)CC1)CC2O (mixture of isomers) .
**Result** 8.6 nM

###

# Lookup of reported Ki keyed by entry
experiment: Displacement of [3H]di-o-tolylguanidine from sigma2 receptor rat liver membranes after 180 mins scintillation counting; assay type: cell membranes, Membrane

**Query** Please report the recorded Ki for OC1CN(Cc2cccc(-c3ccccc3)c2)CCc2cc(OCc3ccccc3)ccc21 (racemic) .
**Result** > 1000 nM

**Query** Please report the recorded Ki for OC1CN([C@H]2CC[C@H](c3ccccc3)CC2)CCc2cc(OCc3ccccc3)ccc21 (stereo partly drawn) .
**Result** > 1000 nM

**Query** Please report the recorded Ki for CC1(C)COC(CCCN2CCc3cc(OCc4ccccc4)ccc3C(O)C2)(c2ccc(F)cc2)OC1 (racemic) .
**Result** > 1000 nM

###

target: Glutamate NMDA receptor; GRIN1/GRIN2B (Homo sapiens, UniProt Q05586+Q13224); assay: Displacement of [3H]ifenprodil from human recombinant NR1-1a/NR2B receptor expressed in mouse L(tk-) cells after 120 mins by scintillation counting; type: cell-based
readoutName: Ki

Observe how each entry below is paired with its result.
COc1ccc(C(=O)CCCN2CCc3cc(OCc4ccccc4)ccc3C(O)C2)cc1 (racemic) ... > 1 µM
CC1(C)COC(CCCN2CCc3cc(OCc4ccccc4)ccc3C(O)C2)(c2ccc(C(C)(C)C)cc2)OC1 (racemic) ... > 1 µM
CN(Cc1ccccc1)C(=O)CN1CCc2cc(O)ccc2C(O)C1 (racemic) ... > 1 µM

**Query** Please report the recorded Ki for O=C(c1ccccc1)N1CCC(N2CCc3cc(OCc4ccccc4)ccc3C(O)C2)CC1 (racemic) .
**Result** > 1 µM

**Query** Please report the recorded Ki for Oc1ccc2c(c1)CCN(C1CCC3(CC1)OCCO3)CC2O (racemic) .
**Result** > 1 µM

**Query** Please report the recorded Ki for Oc1ccc2c(c1)CCN([C@H]1CO[C@H](c3ccccc3)OC1)CC2O (mixture of isomers) .
**Result** > 1 µM

###

target: Sigma non-opioid intracellular receptor 1 (Cavia porcellus); assay: Displacement of [3H](+)-pentazocine from sigma1 receptor guinea pig brain after 180 mins scintillation counting
readoutName: Ki

OC1CN(C2COC(c3ccccc3)OC2)CCc2cc(OCc3ccccc3)ccc21 (racemic) ... 186 nM
Oc1ccc2c(c1)CCN([C@H]1CC[C@@H](c3ccccc3)CC1)CC2O (mixture of isomers) ... 123 nM
Oc1ccc2c(c1)CCN([C@H]1CO[C@H](c3ccccc3)OC1)CC2O (mixture of isomers) ... > 1000 nM

Okay, now this compound:
**Query** // fetch Sigma non-opioid intracellular receptor 1 (Cavia porcellus) Ki for OC1CN(CCCOc2ccccc2)CCc2cc(OCc3ccccc3)ccc21 (racemic)
**Result** 193 nM
